inhibition at 2.5 µM by entry:
Target: outer ubiquinone binding site of complex III (IIIQO) (Rattus norvegicus, UniProt P00159+P20788)
Construct: freshly isolated muscle mitochondria were assayed; from tissue; host or cells: rat skeletal muscle mitochondria (Wistar, Harlan Laboratories)
Test: High-throughput screen: ROS production from outer ubiquinone binding site of complex III (IIIQO)
Type: biochemical
Settings: Table 4; 5 mM succinate, 4 μM rotenone, 2.5 μM antimycin A; compounds 2.5 μM; percent change from DMSO; read-out: % Reduction in ROS production (IIIQO)
Could you give me the number in %? Just the number is fine.

// below: answered compounds
# Compound, Unit Abbrev, Experimental Result
rows = [
    ("Clc1ccc(N2CCN(CC(c3ccccc3)c3ccccc3)CC2)cc1", "%", 29),
    ("Fc1ccc(SCCc2ccccn2)cc1", "%", 24.1),
    ("C=C(C)CN(CC)Cc1cc([N+](=O)[O-])ccc1Cl", "%", 20.2),
]

Task item: Quick one: inhibition at 2.5 µM for `CCCCN(Cc1ccccc1)Cc1cc(Cl)cc(Cl)c1O` ?
Reply: 31.3

Task item: Quick one: inhibition at 2.5 µM for `c1cc2c3c(ccc(CSCCc4ccncc4)c3c1)CC2` ?
Reply: 33.6

---

SDH by entry:
Molecular target: succinate dehydrogenase/complex II (SDH) (Rattus norvegicus, UniProt P21913+Q641Z9+Q6PCT8+Q920L2)
Construct: freshly isolated muscle mitochondria were assayed; from tissue; host or cells: rat skeletal muscle mitochondria (Wistar, Harlan Laboratories)
Sequence (Q920L2 35-656): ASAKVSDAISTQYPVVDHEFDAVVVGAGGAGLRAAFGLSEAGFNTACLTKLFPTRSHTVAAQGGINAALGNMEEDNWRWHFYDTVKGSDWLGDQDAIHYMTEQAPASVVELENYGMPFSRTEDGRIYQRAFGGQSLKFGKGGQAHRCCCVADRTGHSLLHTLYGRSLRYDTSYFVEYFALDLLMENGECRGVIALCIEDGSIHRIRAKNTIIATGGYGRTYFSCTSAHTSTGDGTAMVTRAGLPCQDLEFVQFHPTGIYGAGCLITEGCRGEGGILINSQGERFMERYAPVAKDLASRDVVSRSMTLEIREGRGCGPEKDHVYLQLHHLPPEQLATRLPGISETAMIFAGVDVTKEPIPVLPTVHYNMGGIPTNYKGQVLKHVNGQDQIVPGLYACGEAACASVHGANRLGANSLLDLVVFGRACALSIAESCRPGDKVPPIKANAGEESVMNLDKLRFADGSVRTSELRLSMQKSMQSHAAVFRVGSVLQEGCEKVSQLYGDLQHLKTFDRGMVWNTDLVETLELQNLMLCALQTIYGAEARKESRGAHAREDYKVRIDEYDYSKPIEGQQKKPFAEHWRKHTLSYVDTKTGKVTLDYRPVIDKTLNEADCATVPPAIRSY
Sequence (P21913 31-282): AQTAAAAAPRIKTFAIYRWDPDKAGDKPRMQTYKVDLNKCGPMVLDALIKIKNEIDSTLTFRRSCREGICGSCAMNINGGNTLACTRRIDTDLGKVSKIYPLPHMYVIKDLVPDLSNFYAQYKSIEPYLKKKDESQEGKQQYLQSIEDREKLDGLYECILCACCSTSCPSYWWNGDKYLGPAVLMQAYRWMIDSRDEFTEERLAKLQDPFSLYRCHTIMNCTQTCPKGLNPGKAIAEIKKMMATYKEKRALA
Sequence (Q641Z9 30-169 limits assumed): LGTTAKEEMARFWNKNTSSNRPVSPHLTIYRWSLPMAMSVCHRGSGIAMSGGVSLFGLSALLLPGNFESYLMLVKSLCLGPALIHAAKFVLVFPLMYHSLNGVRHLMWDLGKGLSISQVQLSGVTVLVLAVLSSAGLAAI
Sequence (Q6PCT8 57-159): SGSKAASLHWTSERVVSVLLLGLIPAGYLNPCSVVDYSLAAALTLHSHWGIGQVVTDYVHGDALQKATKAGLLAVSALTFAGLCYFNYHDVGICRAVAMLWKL
Experiment: High-throughput screen: ROS production from succinate dehydrogenase/complex II (SDH)
Format: biochemical
Details: Table 9; percent change in ROS from DMSO controls
Write the number on its own, no unit after it.

// below: answered molecules
# Molecule, Recorded Endpoint, Experimental Result
measured = [
    ("O=C(O)/C=C/C(=O)Nc1ccc(/C=C/c2ccccc2)cc1", "SDH", "−1.0"),
    ("CCSC1=C(C#N)C2(CCCC2)C(C#N)C(=O)N1 (stereo not drawn)", "SDH", 2.6),
    ("O=C(Nc1ccccc1[N+](=O)[O-])c1cccc(S(=O)(=O)Nc2ccccc2)c1", "SDH", "−26.9"),
    ("Cc1cc(C)c(S(=O)(=O)N2CCCC2=O)c(C)c1", "SDH", "−2.7"),
    ("CC1CC(C)(C)N(C=O)c2ccccc21 (stereo not drawn)", "SDH", "−87.6"),
]

Task item: Quick one: SDH for `Cc1ccc(C)c(CN(CCCN(C)C)CCCN(C)C)c1` ?
Reply: −6.8

---

Target: outer ubiquinone binding site of complex III (IIIQO) (Rattus norvegicus, UniProt P00159+P20788)
Construct: freshly isolated muscle mitochondria were assayed; from tissue; host or cells: rat skeletal muscle mitochondria (Wistar, Harlan Laboratories)
Test: High-throughput screen: ROS production from outer ubiquinone binding site of complex III (IIIQO)
Format: biochemical
Conditions: Table 9; percent change in ROS from DMSO controls
IIIQO by entry:
Write the number on its own, no unit after it.

Task item: Quick one: IIIQO for Cc1cc(C)c(OCC(O)CNC(C)(C)CC(C)(C)C)c(C)c1.Cl (centres unmarked) [Compound 14] ?
Reply: −2.9

Task item: Quick one: IIIQO for O=C(Nc1ccccc1[N+](=O)[O-])c1cccc(S(=O)(=O)Nc2ccccc2)c1 [Compound 73] ?
Reply: −1.3

Task item: Quick one: IIIQO for O=[N+]([O-])c1ccc(Oc2ccc(S(=O)(=O)NC3CCCCC3)cc2)cc1 [Compound 4] ?
Reply: −0.3

Task item: Quick one: IIIQO for O=[N+]([O-])c1ccc(Oc2ccc(S(=O)(=O)Nc3ccc(F)cc3)cc2)cc1 [Compound 84] ?
Reply: 0.8

Task item: Quick one: IIIQO for O=[N+]([O-])c1ccc(Oc2ccc(S(=O)(=O)Nc3ccc4c(c3)OCCO4)cc2)cc1 [Compound 85] ?
Reply: −0.8
